B1: Formin-binding protein 4, residues 200 to 261; numbered along this chain, Q8N3X1 (parent)
chain: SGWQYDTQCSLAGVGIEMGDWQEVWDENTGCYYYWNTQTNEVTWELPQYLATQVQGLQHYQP

Variants of: B1
TEST_METHOD_NOTES: abundance fitness (aPCA) (normalised: wild type 0, dead -1); higher = more abundant; growth selection in yeast, the domain comes from the species named
ASSAY_CONTEXT: Homo sapiens
Label rule, in plain words: abundance fitness of -0.3 and up is Y, under -0.3 is N.

### Prompt Given the entry L57K , answer whether its abundance fitness meets or surpasses -0.3.
### Response Y

### Prompt Given the entry Y32E , answer whether its abundance fitness meets or surpasses -0.3.
### Response N

### Prompt Given the entry V42S , answer whether its abundance fitness meets or surpasses -0.3.
### Response Y

### Prompt Given the entry C31H , answer whether its abundance fitness meets or surpasses -0.3.
### Response Y

### Prompt Given the entry G56L , answer whether its abundance fitness meets or surpasses -0.3.
### Response Y

### Prompt Given the entry N28F , answer whether its abundance fitness meets or surpasses -0.3.
### Response N

### Prompt Given the entry P62R , answer whether its abundance fitness meets or surpasses -0.3.
### Response Y

### Prompt Given the entry N36E , answer whether its abundance fitness meets or surpasses -0.3.
### Response Y

### Prompt Given the entry T7K , answer whether its abundance fitness meets or surpasses -0.3.
### Response Y

### Prompt Given the entry Q55E , answer whether its abundance fitness meets or surpasses -0.3.
### Response Y

### Prompt Given the entry G19T , answer whether its abundance fitness meets or surpasses -0.3.
### Response N

### Prompt Given the entry M18R , answer whether its abundance fitness meets or surpasses -0.3.
### Response N

### Prompt Given the entry W44E , answer whether its abundance fitness meets or surpasses -0.3.
### Response Y

### Prompt Given the entry E41F , answer whether its abundance fitness meets or surpasses -0.3.
### Response N

### Prompt Given the entry W25N , answer whether its abundance fitness meets or surpasses -0.3.
### Response N

### Prompt Given the entry W21T , answer whether its abundance fitness meets or surpasses -0.3.
### Response N

### Prompt Given the entry L46P , answer whether its abundance fitness meets or surpasses -0.3.
### Response N

### Prompt Given the entry Q55D , answer whether its abundance fitness meets or surpasses -0.3.
### Response Y

### Prompt Given the entry Q61K , answer whether its abundance fitness meets or surpasses -0.3.
### Response Y

### Prompt Given the entry T7V , answer whether its abundance fitness meets or surpasses -0.3.
### Response Y

### Prompt Given the entry W44D , answer whether its abundance fitness meets or surpasses -0.3.
### Response N

### Prompt Given the entry G30R , answer whether its abundance fitness meets or surpasses -0.3.
### Response Y

### Prompt Given the entry V42R , answer whether its abundance fitness meets or surpasses -0.3.
### Response Y

### Prompt Given the entry P47D , answer whether its abundance fitness meets or surpasses -0.3.
### Response N

### Prompt Given the entry L50P , answer whether its abundance fitness meets or surpasses -0.3.
### Response N

### Prompt Given the entry I16R , answer whether its abundance fitness meets or surpasses -0.3.
### Response N

### Prompt Given the entry A51C , answer whether its abundance fitness meets or surpasses -0.3.
### Response Y

### Prompt Given the entry E23I , answer whether its abundance fitness meets or surpasses -0.3.
### Response N

### Prompt Given the entry V54Q , answer whether its abundance fitness meets or surpasses -0.3.
### Response N

### Prompt Given the entry Y33P , answer whether its abundance fitness meets or surpasses -0.3.
### Response N

### Prompt Given the entry D26E , answer whether its abundance fitness meets or surpasses -0.3.
### Response Y

### Prompt Given the entry G30F , answer whether its abundance fitness meets or surpasses -0.3.
### Response N

### Prompt Given the entry Q22C , answer whether its abundance fitness meets or surpasses -0.3.
### Response N

### Prompt Given the entry E27T , answer whether its abundance fitness meets or surpasses -0.3.
### Response Y

### Prompt Given the entry V54H , answer whether its abundance fitness meets or surpasses -0.3.
### Response N

### Prompt Given the entry W3C , answer whether its abundance fitness meets or surpasses -0.3.
### Response Y

### Prompt Given the entry T37Q , answer whether its abundance fitness meets or surpasses -0.3.
### Response Y

### Prompt Given the entry A51D , answer whether its abundance fitness meets or surpasses -0.3.
### Response N

### Prompt Given the entry D26G , answer whether its abundance fitness meets or surpasses -0.3.
### Response N

### Prompt Given the entry V14R , answer whether its abundance fitness meets or surpasses -0.3.
### Response Y

### Prompt Given the entry T7C , answer whether its abundance fitness meets or surpasses -0.3.
### Response Y

### Prompt Given the entry T29H , answer whether its abundance fitness meets or surpasses -0.3.
### Response Y

### Prompt Given the entry S1Q , answer whether its abundance fitness meets or surpasses -0.3.
### Response N

### Prompt Given the entry N40C , answer whether its abundance fitness meets or surpasses -0.3.
### Response N

### Prompt Given the entry E45D , answer whether its abundance fitness meets or surpasses -0.3.
### Response Y

### Prompt Given the entry V54M , answer whether its abundance fitness meets or surpasses -0.3.
### Response Y

Each recorded value in this set is attributed to the Human Domainome abundance scans (Beltran et al. 2025).
